target-or-test-system: human metabotropic glutamate receptor 5 (hmGluR5) (UniProt P31424)
protocol-summary: Calcium mobilization (FLIPR) assay, positive allosteric modulation of the EC20 glutamate response
Assay type: cell-based
condition-set: HEK 293 cells, EC20 glutamate response
Please go through the items and note down their maximum modulation (Emax).
Use % as the unit, but write only the number.

Ask: Find the recorded maximum modulation (Emax) belonging to C(#Cc1ncc(CN2CCCCC2)s1)c1ccccc1 [Example 206] and report it.
Reply: 130

Ask: Repeat with O=C(c1cnc(C#Cc2ccc(F)cc2)s1)N1CCC(O)CC1 [Example 29]
Reply: 100

Ask: Similarly, CCOC1CCN(C(=O)c2cnc(C#Cc3ccccc3)s2)CC1 [Example 122] ?
Reply: 130

Ask: Follow-up item: O=C(c1cnc(C#Cc2ccccc2)s1)N1CCN(c2ccccc2)CC1 [Example 41]
Reply: 52

Ask: Another: O=C(c1cnc(C#Cc2cccnc2)s1)N1CCCCC1 [Example 188]
Reply: 95

Ask: What do we get for O=C(c1cnc(C#Cc2ccccc2)s1)N1CCCCC1 [Example 1] ?
Reply: 210

Ask: Moving on to O=C(c1cnc(C#CC2CCCCC2)s1)N1CCCCC1 [Example 200]
Reply: 160

Ask: Next molecule up: CN1CCN(C(=O)c2cnc(C#Cc3cccc(Cl)c3)s2)CC1 [Example 158]
Reply: 94

Ask: // same read-out, input: COC1CCN(C(=O)c2cnc(C#Cc3ccccc3)s2)CC1 [Example 121]
Reply: 140

Ask: Follow-up entry: O=C(c1cnc(C#Cc2ccccc2)s1)N1CC2CCCC2C1 (stereo not shown) [Example 144]
Reply: 110

----------
target-or-test-system: human metabotropic glutamate receptor 5 (hmGluR5)
protocol-summary: Calcium mobilization (FLIPR) assay, positive allosteric modulation of the EC20 glutamate response
condition-set: HEK 293 cells, increase in EC20 glutamate response
reported-property: pEC50
# pEC50 = -log10(concentration in molar units)

Ask: Item under review: O=C(c1cnc(C#Cc2ccccc2)s1)N1CCCC(N2CCOCC2)CC1 (centres unmarked) . Reported pEC50?
Reply: 5.47

Ask: Check Cc1cccc(C#Cc2ncc(C(=O)N3CCC(O)CC3)s2)c1 too.
Reply: 7.26

Ask: Same read-out for CN1CCN(C(=O)c2cnc(C#Cc3ccccc3)s2)CC1 ?
Reply: 6.28

Ask: Please give the result for O=C(c1cnc(C#Cc2ccc(F)cc2)s1)N1CCC(O)CC1 too.
Reply: 5.62

Ask: Subsequent entry: O=C(c1cnc(C#Cc2cccnc2)s1)N1CCCCC1
Reply: 5.21

Ask: # repeat for CC1CCN(C(=O)c2cnc(C#Cc3cccc(F)c3)s2)CC1
Reply: 9.15

Ask: How about this compound: F[C@@H]1CCN(Cc2cnc(C#Cc3ccccc3)s2)C1
Reply: 7.48

Ask: Would you mind doing COC1CCCN(C(=O)c2cnc(C#Cc3ccccc3)s2)C1 (centres unmarked) as well?
Reply: 6.85

Ask: O=C1CCN(C(=O)c2cnc(C#Cc3ccccc3)s2)C1 ?
Reply: 6.96

Ask: Try COC1CN(Cc2cnc(C#Cc3ccccc3)s2)C1 next.
Reply: 6.12

Ask: How about O=C(c1cnc(C#Cc2ccccc2)s1)N1CCc2sccc2C1 ?
Reply: 7.70

Ask: Try CCN1CCN(C(=O)c2cnc(C#Cc3cccc(Cl)c3)s2)CC1 next.
Reply: 6.29

Ask: Lookup O=C(c1cnc(C#Cc2ccccc2Cl)s1)N1CCCCC1
Reply: 6.36

Ask: Same lookup for CC1CCN(C(=O)c2cnc(C#Cc3ccccc3F)s2)CC1 , please.
Reply: 7.70

Ask: Entry to check: O=C(c1cnc(C#Cc2ccccc2)s1)N1CCCCC1
Reply: 8.44

Ask: Again, but for COc1ccc(C#Cc2ncc(C(=O)N3CCCCC3)s2)cc1
Reply: 5.66

Ask: Repeat for the following compound: O=C(c1cnc(C#Cc2ccccc2)s1)N1CCC(N2CCCC2)C1 (centres unmarked)
Reply: 5.40

Ask: Further, for O=C(c1cnc(C#Cc2ccccc2)s1)N1CCC(C(F)(F)F)CC1 ?
Reply: 7.19

Ask: Now this one: CCOC1CCN(C(=O)c2cnc(C#Cc3ccccc3)s2)CC1
Reply: 6.66

Ask: Field entry: Cc1nc(C#Cc2ccccc2)sc1C(=O)N1CCC(C)CC1
Reply: 7.64

Ask: Now give it for O=C(c1cnc(C#Cc2ccccc2)s1)N1CC2(COC2)C1 too.
Reply: 5.72

Ask: // next record CC1(O)CCCN(C(=O)c2cnc(C#Cc3ccccc3)s2)CC1 (centres unmarked)
Reply: 7.14

Ask: Also check O=C(c1cnc(C#Cc2ccccc2)s1)N1CCC(F)(F)CC1
Reply: 8.37

Ask: Next: CC(=O)c1cnc(C#Cc2ccccc2)s1
Reply: 6.72

Ask: Can you check CN1CCN(C(=O)c2cnc(C#Cc3cccc(Cl)c3)s2)CC1 next?
Reply: 6.85

Ask: Would you kindly repeat that for CC1(O)CCN(C(=O)c2cnc(C#Cc3ccccc3)s2)C1 (centres unmarked) ?
Reply: 6.96

Ask: How about this compound: O=C(c1cnc(C#Cc2ccccc2)s1)N1CC(N2CCOCC2)C1
Reply: 6.64

Ask: One more compound: N#Cc1cccc(C#Cc2ncc(C(=O)N3CCCCC3)s2)c1
Reply: 7.92

Ask: Can you handle C(#Cc1ncc(CN2CCCCC2)s1)c1ccccc1 next?
Reply: 7.01

Ask: Note, next up: C(#Cc1ncc(CN2CC3CCC2C3)s1)c1ccccc1 (centres unmarked)
Reply: 6.42

Ask: Please do the same for O=C(c1cnc(C#Cc2ccccc2)s1)N1CCC(F)CC1 as well.
Reply: 8.10

Ask: One more compound: COC1CCN(C(=O)c2cnc(C#Cc3ccccc3)s2)CC1
Reply: 7.24

Ask: Same thing, different compound: O=C(c1cnc(C#Cc2ccccc2)s1)N1CCN(c2ccccc2)CC1
Reply: 6.44

Ask: Can you check O=C(c1cnc(C#Cc2ccccc2)s1)N1CCC2(CCCO2)CC1 next?
Reply: 6.70

Ask: Ok, now O=C(c1cnc(C#Cc2cccc(Cl)c2)s1)N1CCC(O)CC1
Reply: 7.92

Ask: Record: FC1(F)CCN(Cc2cnc(C#Cc3ccccc3)s2)CC1
Reply: 7.44

Ask: Please give the result for CN(C)Cc1cnc(C#Cc2ccccc2)s1 too.
Reply: 7.43

Ask: What do we get for O=C(c1cnc(C#CC2CCCCC2)s1)N1CCCCC1 ?
Reply: 6.29

Ask: Please do the same for C(#Cc1ncc(CN2CCCC2)s1)c1ccccc1 as well.
Reply: 6.66

Ask: Now consider O=C(c1cnc(C#Cc2ccccc2)s1)C1CCCCC1 and answer again.
Reply: 6.96

Ask: Same read-out for O=C(c1cnc(C#Cc2ccc(F)cc2)s1)N1CCCCC1 ?
Reply: 7.54

----------
target-or-test-system: human metabotropic glutamate receptor 5 (hmGluR5) (UniProt P31424)
protocol-summary: Calcium mobilization (FLIPR) assay, positive allosteric modulation of the EC20 glutamate response
Format: cell-based
condition-set: HEK 293 cells, EC20 glutamate response
What maximum modulation (Emax) was measured for each of the following?
Give your result in % as a bare value.

Ask: I would be grateful if you could share the reported maximum modulation (Emax) for O=C(c1cnc(C#Cc2ccccc2)s1)N1CCc2[nH]ncc2C1 .
Reply: 120

Ask: Quick one: CC1(O)CCN(C(=O)c2cnc(C#Cc3ccccc3)s2)CC1
Reply: 120

Ask: Then what about the compound CCN1CCN(C(=O)c2cnc(C#Cc3cccc(Cl)c3)s2)CC1 ?
Reply: 74

Ask: Record: O=C(c1cnc(C#Cc2ccccc2)s1)N1CCCCCC1
Reply: 79

Ask: Would you kindly repeat that for Cc1nc(C#Cc2ccccc2)sc1C(=O)N1CCC(C)CC1 ?
Reply: 91

Ask: Entry O=C(c1cnc(C#Cc2ccccc2)s1)N1CC2CCC1C2 (centres unmarked) please
Reply: 69

Ask: Record: CC1(O)CCN(C(=O)c2cnc(C#Cc3ccccc3)s2)C1 (centres unmarked)
Reply: 38

Ask: Entry OC(c1cnc(C#Cc2ccccc2)s1)C1CCCCC1 (centres unmarked) please
Reply: 50

Ask: Same read-out for F[C@@H]1CCN(Cc2cnc(C#Cc3ccccc3)s2)C1 ?
Reply: 110

Ask: Next compound: CC(=O)c1cnc(C#Cc2ccccc2)s1
Reply: 170

Ask: Same read-out for CC1CCN(C(=O)c2cnc(C#Cc3ccccc3)s2)CC1 ?
Reply: 150

Ask: Entry N#Cc1cccc(C#Cc2ncc(C(=O)N3CCCCC3)s2)c1 please
Reply: 45

Ask: What would you report for O=C(c1cnc(C#Cc2ccccc2)s1)N1CCC(O)CC1 ?
Reply: 170

Ask: What do you have for O=C1CCN(C(=O)c2cnc(C#Cc3ccccc3)s2)C1 ?
Reply: 110

Ask: What would you report for O=C(c1cnc(C#Cc2ccccc2)s1)N1CCCC(N2CCOCC2)CC1 (centres unmarked) ?
Reply: 100

Ask: // repeat for O=C(c1cnc(C#Cc2ccccc2)s1)C1CCCCC1 and report
Reply: 130

Ask: Can you handle O=C(c1cnc(C#Cc2ccccc2)s1)N1CCC(C(F)(F)F)CC1 next?
Reply: 130

Ask: What do we get for O=C(c1cnc(C#Cc2ccccc2)s1)N1CCC(F)CC1 ?
Reply: 130

Ask: Record: COC1CCCN(C(=O)c2cnc(C#Cc3ccccc3)s2)C1 (centres unmarked)
Reply: 46

Ask: Again, but for O=C(c1cnc(C#Cc2ccccc2)s1)N1CCC(F)(F)CC1
Reply: 150
